targetDesc: Human GPR40 (Homo sapiens (Human), UniProt O14842)
Sequence (O14842 whole entry): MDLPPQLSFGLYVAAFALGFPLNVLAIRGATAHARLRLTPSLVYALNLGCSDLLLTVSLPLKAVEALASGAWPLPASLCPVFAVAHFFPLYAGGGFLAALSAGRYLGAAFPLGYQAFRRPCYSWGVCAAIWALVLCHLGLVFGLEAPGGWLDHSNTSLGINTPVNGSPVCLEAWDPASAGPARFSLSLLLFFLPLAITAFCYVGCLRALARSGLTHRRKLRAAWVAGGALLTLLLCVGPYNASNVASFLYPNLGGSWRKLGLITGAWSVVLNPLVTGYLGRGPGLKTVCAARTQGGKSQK
assayInfo: Inositol Phosphate Turnover (IP1) Assay 1, HEK cells stably expressing human GPR40, 3H-inositol SPA
Type: cell-based
details: HEK cells stably expressing human GPR40, 96-well
readout: EC50 (nM)
# output: bare number, implied unit nM

Task: Form field: reported EC50 of C[C@H](C(=O)O)[C@H](c1cccc(OCC2CC2Cc2ccccc2)c1)C1CC1 (stereo partly shown) [Example 67]
Result: 408

Task: Let us now turn to C[C@H](C(=O)O)[C@H](c1cccc(OCC2CN(c3cc(C(F)(F)F)ccn3)C2)c1)C1CC1 [Example 16]
Result: 631

Task: Let us now turn to COc1ccccc1OC1CC(COc2cccc([C@H](C3CC3)[C@H](C)C(=O)O)c2)C1 (stereo partly shown) [Example 128]
Result: 72

Task: Let us now turn to O=C(O)C[C@H](c1cccc(OCC2CN(Cc3ccccc3OC(F)(F)F)C2)c1)C1CC1 [Example 50]
Result: 5030
